Molecular target: FZD2 cysteine-rich domain (CRD), MYC-tagged and GPI-anchored on CHO cells (human, UniProt Q14332 35-161)
Assay: immunofluorescence, CHO-CRD cells
measurement name: binding result

- binder: "Fab-2936 (Fab, V domains shown, Fab; also called Fv-2936) VH: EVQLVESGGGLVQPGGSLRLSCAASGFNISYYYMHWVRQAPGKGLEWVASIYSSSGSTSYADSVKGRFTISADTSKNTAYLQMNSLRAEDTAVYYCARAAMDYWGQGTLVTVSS VL: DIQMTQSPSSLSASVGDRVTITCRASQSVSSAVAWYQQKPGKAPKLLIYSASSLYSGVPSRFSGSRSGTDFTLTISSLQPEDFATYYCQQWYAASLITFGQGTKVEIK"
  value: "no binding"
- binder: "Fab-2922 (Fab, V domains shown, Fab; also called Fv-2922) VH: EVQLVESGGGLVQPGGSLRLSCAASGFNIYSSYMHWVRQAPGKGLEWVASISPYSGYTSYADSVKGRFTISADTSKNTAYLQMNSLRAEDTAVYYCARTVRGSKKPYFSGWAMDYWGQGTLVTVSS VL: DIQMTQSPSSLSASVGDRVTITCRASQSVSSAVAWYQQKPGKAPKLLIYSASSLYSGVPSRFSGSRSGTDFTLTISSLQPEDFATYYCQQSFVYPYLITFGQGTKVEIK"
  value: "no binding"
- binder: "Fab-2918 (Fab, V domains shown, Fab; also called Fv-2918) VH: EVQLVESGGGLVQPGGSLRLSCAASGFNLSYSSIHWVRQAPGKGLEWVASIYSSYSSTSYADSVKGRFTISADTSKNTAYLQMNSLRAEDTAVYYCARFGYWAIDYWGQGTLVTVSS VL: DIQMTQSPSSLSASVGDRVTITCRASQSVSSAVAWYQQKPGKAPKLLIYSASSLYSGVPSRFSGSRSGTDFTLTISSLQPEDFATYYCQQAFGASLFTFGQGTKVEIK"
  value: "no binding"
